# System: HEp-2
# Test Name: Cytotoxicity against human Hep2 cells at 30 uM after 48 hrs by SRB assay
# Type: functional
# Condition Context: HEp-2, 48 h, read-out: GI
So basically: inhibition of growth at 30 µM at 50% or higher? That is true. Lower than 50%? That is false.

Solved cases below.
INSERT INTO measurements (compound, qualitative_label) VALUES
  ('C=C(C)[C@@H]1CC[C@]2(C(=O)O)CC[C@]3(C)[C@H](CC[C@@H]4[C@@]5(C)CC[C@H](OCc6cn(-c7cccc(I)c7)nn6)C(C)(C)[C@@H]5CC[C@]43C)[C@@H]12', 'true'),
  ('C=C(C)[C@@H]1CC[C@]2(C(=O)O)CC[C@]3(C)[C@H](CC[C@@H]4[C@@]5(C)CC[C@H](OCc6cn(C7O[C@H](COC(C)=O)[C@@H](OC(C)=O)[C@H](OC(C)=O)[C@H]7OC(C)=O)nn6)C(C)(C)[C@@H]5CC[C@]43C)[C@@H]12 (some centres undefined)', 'false'),
  ('C=C(C)[C@@H]1CC[C@]2(C(=O)O)CC[C@]3(C)[C@H](CC[C@@H]4[C@@]5(C)CC[C@H](OCc6cn(-c7cc(C)cc(O)c7)nn6)C(C)(C)[C@@H]5CC[C@]43C)[C@@H]12', 'false'),
  ('C=C(C)[C@@H]1CC[C@]2(C(=O)O)CC[C@]3(C)[C@H](CC[C@@H]4[C@@]5(C)CC[C@H](OCc6cn(-c7ccccc7C#N)nn6)C(C)(C)[C@@H]5CC[C@]43C)[C@@H]12', 'true'),
  ('C=C(C)[C@@H]1CC[C@]2(C(=O)O)CC[C@]3(C)[C@H](CC[C@@H]4[C@@]5(C)CC[C@H](OCc6cn(-c7ccc([N+](=O)[O-])cc7)nn6)C(C)(C)[C@@H]5CC[C@]43C)[C@@H]12', 'true'),
  ('C=C(C)[C@@H]1CC[C@]2(C(=O)O)CC[C@]3(C)[C@H](CC[C@@H]4[C@@]5(C)CC[C@H](OCc6cn(C7O[C@H](COC(C)=O)[C@H](OC(C)=O)[C@H](OC(C)=O)[C@H]7OC(C)=O)nn6)C(C)(C)[C@@H]5CC[C@]43C)[C@@H]12 (some centres undefined)', 'false'),
  ('C=C(C)[C@@H]1CC[C@]2(C(=O)O)CC[C@]3(C)[C@H](CC[C@@H]4[C@@]5(C)CC[C@H](OCc6cn(-c7cc(OC)c(OC)c(OC)c7)nn6)C(C)(C)[C@@H]5CC[C@]43C)[C@@H]12', 'false'),
  ('C=C(C)[C@@H]1CC[C@]2(C(=O)O)CC[C@]3(C)[C@H](CC[C@@H]4[C@@]5(C)CC[C@H](O)C(C)(C)[C@@H]5CC[C@]43C)[C@@H]12 [BETULINIC ACID]', 'true');

Q: Entry C=C(C)[C@@H]1CC[C@]2(C(=O)O)CC[C@]3(C)[C@H](CC[C@@H]4[C@@]5(C)CC[C@H](OCc6cn(-c7cccc8c(O)cccc78)nn6)C(C)(C)[C@@H]5CC[C@]43C)[C@@H]12 : is its inhibition of growth at 30 µM no less than 50%?
A: true

Q: Entry C=C(C)[C@@H]1CC[C@]2(C(=O)O)CC[C@]3(C)[C@H](CC[C@@H]4[C@@]5(C)CC[C@H](OCc6cn(-c7ccc(CC#N)cc7)nn6)C(C)(C)[C@@H]5CC[C@]43C)[C@@H]12 : is its inhibition of growth at 30 µM no less than 50%?
A: true

Q: Entry C=C(C)[C@@H]1CC[C@]2(C(=O)O)CC[C@]3(C)[C@H](CC[C@@H]4[C@@]5(C)CC[C@H](OCc6cn(-c7ccc8c(c7)OCO8)nn6)C(C)(C)[C@@H]5CC[C@]43C)[C@@H]12 : is its inhibition of growth at 30 µM no less than 50%?
A: true

Q: Entry C=C(C)[C@@H]1CC[C@]2(C(=O)O)CC[C@]3(C)[C@H](CC[C@@H]4[C@@]5(C)CC[C@H](OCc6cn(-c7cc(I)ccc7C)nn6)C(C)(C)[C@@H]5CC[C@]43C)[C@@H]12 : is its inhibition of growth at 30 µM no less than 50%?
A: false

Q: Entry C=C(C)[C@@H]1CC[C@]2(C(=O)O)CC[C@]3(C)[C@H](CC[C@@H]4[C@@]5(C)CC[C@H](OCc6cn(-c7ccc(OC)cc7)nn6)C(C)(C)[C@@H]5CC[C@]43C)[C@@H]12 : is its inhibition of growth at 30 µM no less than 50%?
A: true

Q: Entry C=C(C)[C@@H]1CC[C@]2(C(=O)O)CC[C@]3(C)[C@H](CC[C@@H]4[C@@]5(C)CC[C@H](OCc6cn(-c7cccc(OC)c7)nn6)C(C)(C)[C@@H]5CC[C@]43C)[C@@H]12 : is its inhibition of growth at 30 µM no less than 50%?
A: true
